Entry source: the supplement of paper PMC6757056

B1: library; a variant is named by its letters at N, in order (parent)
chain: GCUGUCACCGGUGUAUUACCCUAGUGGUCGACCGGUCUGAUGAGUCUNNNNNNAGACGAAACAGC

# Variants of: B1
# EXPERIMENTAL DETAILS: normalized RNA/DNA level with ligand (relative to sTRSVctl = 100) (log10 (% of sTRSVctl)); ligand: hypoxanthine (xanthine aptamer); higher = less ribozyme self-cleavage, higher mRNA level
# COND: ligand concentration (+) RNA-Seq: 5 mM, HEK293T, reporter: mCherry (pCS4076), ligand present: yes
MEASURED PROPERTY: normalized RNA/DNA level with ligand (log10)
Lab note: record just the number, no unit beside it.

I am curious: what normalized RNA/DNA level with ligand (log10) value has been reported for GCUGUCACCGGUGUAUUACCCUAGUGGUCGACCGGUCUGAUGAGUCUAGCUCUAGACGAAACAGC [AGCUCU] ? 1.96

Record request: normalized RNA/DNA level with ligand (log10) value, item GCUGUCACCGGUGUAUUACCCUAGUGGUCGACCGGUCUGAUGAGUCUGAUAUCAGACGAAACAGC [GAUAUC] 1.91

Record request: normalized RNA/DNA level with ligand (log10) value, item GCUGUCACCGGUGUAUUACCCUAGUGGUCGACCGGUCUGAUGAGUCUAUGAUCAGACGAAACAGC [AUGAUC] 1.98

Give its normalized RNA/DNA level with ligand (log10) value. Item: GCUGUCACCGGUGUAUUACCCUAGUGGUCGACCGGUCUGAUGAGUCUCGCUCCAGACGAAACAGC [CGCUCC] 1.96

For the variant GCUGUCACCGGUGUAUUACCCUAGUGGUCGACCGGUCUGAUGAGUCUGAACUAAGACGAAACAGC [GAACUA] , what normalized RNA/DNA level with ligand (log10) is on record? 1.87

Reported normalized RNA/DNA level with ligand (log10), variant GCUGUCACCGGUGUAUUACCCUAGUGGUCGACCGGUCUGAUGAGUCUAAACUUAGACGAAACAGC [AAACUU] : ____ 1.92

Can you share its normalized RNA/DNA level with ligand (log10)? I mean this variant: GCUGUCACCGGUGUAUUACCCUAGUGGUCGACCGGUCUGAUGAGUCUCUUAAGAGACGAAACAGC [CUUAAG] 1.93

What normalized RNA/DNA level with ligand (log10) value was documented for this variant, GCUGUCACCGGUGUAUUACCCUAGUGGUCGACCGGUCUGAUGAGUCUGUUGAAAGACGAAACAGC [GUUGAA] ? 1.92

Given GCUGUCACCGGUGUAUUACCCUAGUGGUCGACCGGUCUGAUGAGUCUAAUCCAAGACGAAACAGC [AAUCCA] , state its recorded normalized RNA/DNA level with ligand (log10). 1.92

Item under review: GCUGUCACCGGUGUAUUACCCUAGUGGUCGACCGGUCUGAUGAGUCUAGAUCCAGACGAAACAGC [AGAUCC] . Reported normalized RNA/DNA level with ligand (log10)? 1.94

Any idea what its normalized RNA/DNA level with ligand (log10) is? The variant is GCUGUCACCGGUGUAUUACCCUAGUGGUCGACCGGUCUGAUGAGUCUUUCAUUAGACGAAACAGC [UUCAUU] 1.95

Field request: normalized RNA/DNA level with ligand (log10) | item: GCUGUCACCGGUGUAUUACCCUAGUGGUCGACCGGUCUGAUGAGUCUAAGUACAGACGAAACAGC [AAGUAC] 1.89

Report normalized RNA/DNA level with ligand (log10) for GCUGUCACCGGUGUAUUACCCUAGUGGUCGACCGGUCUGAUGAGUCUCCACAUAGACGAAACAGC [CCACAU] please. 1.92

normalized RNA/DNA level with ligand (log10) for GCUGUCACCGGUGUAUUACCCUAGUGGUCGACCGGUCUGAUGAGUCUGAUUACAGACGAAACAGC [GAUUAC] ? 1.94

Request the reported normalized RNA/DNA level with ligand (log10) associated with GCUGUCACCGGUGUAUUACCCUAGUGGUCGACCGGUCUGAUGAGUCUCUUGGUAGACGAAACAGC [CUUGGU] 1.98

Item under review: GCUGUCACCGGUGUAUUACCCUAGUGGUCGACCGGUCUGAUGAGUCUAAAGCGAGACGAAACAGC [AAAGCG] . Reported normalized RNA/DNA level with ligand (log10)? 1.82

Need normalized RNA/DNA level with ligand (log10) of GCUGUCACCGGUGUAUUACCCUAGUGGUCGACCGGUCUGAUGAGUCUAAAGUCAGACGAAACAGC [AAAGUC] , thanks. 1.98

Which normalized RNA/DNA level with ligand (log10) value belongs to GCUGUCACCGGUGUAUUACCCUAGUGGUCGACCGGUCUGAUGAGUCUUGGUAGAGACGAAACAGC [UGGUAG] ? 1.88

What value of normalized RNA/DNA level with ligand (log10) has been reported for the following variant? GCUGUCACCGGUGUAUUACCCUAGUGGUCGACCGGUCUGAUGAGUCUAUAGGUAGACGAAACAGC [AUAGGU] 1.91

Consider the variant shown here: GCUGUCACCGGUGUAUUACCCUAGUGGUCGACCGGUCUGAUGAGUCUUUUUAUAGACGAAACAGC [UUUUAU] What is its recorded normalized RNA/DNA level with ligand (log10)? 1.96

Recorded normalized RNA/DNA level with ligand (log10) of GCUGUCACCGGUGUAUUACCCUAGUGGUCGACCGGUCUGAUGAGUCUACCUUGAGACGAAACAGC [ACCUUG] , please. 1.88

Can you look up the measured normalized RNA/DNA level with ligand (log10) of GCUGUCACCGGUGUAUUACCCUAGUGGUCGACCGGUCUGAUGAGUCUGAGUUGAGACGAAACAGC [GAGUUG] for me? 1.62

Recorded normalized RNA/DNA level with ligand (log10) for GCUGUCACCGGUGUAUUACCCUAGUGGUCGACCGGUCUGAUGAGUCUUCUGAUAGACGAAACAGC [UCUGAU] , please? 1.94

# input variant: GCUGUCACCGGUGUAUUACCCUAGUGGUCGACCGGUCUGAUGAGUCUUCCGUGAGACGAAACAGC [UCCGUG] ; wanted: its normalized RNA/DNA level with ligand (log10) 1.91

Fill in the blank: the reported normalized RNA/DNA level with ligand (log10) of GCUGUCACCGGUGUAUUACCCUAGUGGUCGACCGGUCUGAUGAGUCUGGAGCAAGACGAAACAGC [GGAGCA] is ____. 1.95

Could you tell me which normalized RNA/DNA level with ligand (log10) is on file for GCUGUCACCGGUGUAUUACCCUAGUGGUCGACCGGUCUGAUGAGUCUCCGUGAAGACGAAACAGC [CCGUGA] ? 1.97

Quick one: normalized RNA/DNA level with ligand (log10) for GCUGUCACCGGUGUAUUACCCUAGUGGUCGACCGGUCUGAUGAGUCUCCUUCAAGACGAAACAGC [CCUUCA] ? 1.97

Fill blank: measured normalized RNA/DNA level with ligand (log10) of the variant GCUGUCACCGGUGUAUUACCCUAGUGGUCGACCGGUCUGAUGAGUCUUCUCCAAGACGAAACAGC [UCUCCA] is ____. 1.93

Fill in: normalized RNA/DNA level with ligand (log10) of GCUGUCACCGGUGUAUUACCCUAGUGGUCGACCGGUCUGAUGAGUCUCAUCGCAGACGAAACAGC [CAUCGC] is ___ 1.97

Which normalized RNA/DNA level with ligand (log10) value is on record for GCUGUCACCGGUGUAUUACCCUAGUGGUCGACCGGUCUGAUGAGUCUACAGUCAGACGAAACAGC [ACAGUC] ? 1.92

Endpoint output: normalized RNA/DNA level with ligand (log10) of GCUGUCACCGGUGUAUUACCCUAGUGGUCGACCGGUCUGAUGAGUCUGAUGCGAGACGAAACAGC [GAUGCG] . Value? 1.87

Sample GCUGUCACCGGUGUAUUACCCUAGUGGUCGACCGGUCUGAUGAGUCUACGCCGAGACGAAACAGC [ACGCCG] — what was its normalized RNA/DNA level with ligand (log10)? 1.87

Which normalized RNA/DNA level with ligand (log10) is listed for GCUGUCACCGGUGUAUUACCCUAGUGGUCGACCGGUCUGAUGAGUCUAUCAGGAGACGAAACAGC [AUCAGG] ? 1.87

What value of normalized RNA/DNA level with ligand (log10) has been recorded for this entry: GCUGUCACCGGUGUAUUACCCUAGUGGUCGACCGGUCUGAUGAGUCUGUCCAAAGACGAAACAGC [GUCCAA] 1.89

What does the data say about its normalized RNA/DNA level with ligand (log10)? Entry: GCUGUCACCGGUGUAUUACCCUAGUGGUCGACCGGUCUGAUGAGUCUUUUACCAGACGAAACAGC [UUUACC] 1.96

Given the variant GCUGUCACCGGUGUAUUACCCUAGUGGUCGACCGGUCUGAUGAGUCUUUGGACAGACGAAACAGC [UUGGAC] , what is its reported normalized RNA/DNA level with ligand (log10)? 1.95

Look up normalized RNA/DNA level with ligand (log10) for this variant: GCUGUCACCGGUGUAUUACCCUAGUGGUCGACCGGUCUGAUGAGUCUAUAACAAGACGAAACAGC [AUAACA] 1.9

Query (variant): GCUGUCACCGGUGUAUUACCCUAGUGGUCGACCGGUCUGAUGAGUCUAGGAUGAGACGAAACAGC [AGGAUG] ; field requested: normalized RNA/DNA level with ligand (log10) 1.79
